# credit: patent US20060229356A1

# Tested on: paramyxovirus (Sendai, SV)
# Measurement Description: Sendai virus (SV) replication in 37RC cells, hemagglutination assay
# Format: cell-based
# Condition Details: Respirovirus muris, 24 h; read-out: IC50 (50% reduction of the virus titer)
Reported Property: IC50 (µM)
Return type: number; implicit unit µM.

Sample COc1ccc2c(c1)c(CC(=O)O)c(C)n2C(=O)c1ccc(Cl)cc1 — what was its IC50?
130
